# Measured On: NADPH oxidase 5 (Homo sapiens) (UniProt Q96PH1)
# Sequence (Q96PH1 whole entry, looked up): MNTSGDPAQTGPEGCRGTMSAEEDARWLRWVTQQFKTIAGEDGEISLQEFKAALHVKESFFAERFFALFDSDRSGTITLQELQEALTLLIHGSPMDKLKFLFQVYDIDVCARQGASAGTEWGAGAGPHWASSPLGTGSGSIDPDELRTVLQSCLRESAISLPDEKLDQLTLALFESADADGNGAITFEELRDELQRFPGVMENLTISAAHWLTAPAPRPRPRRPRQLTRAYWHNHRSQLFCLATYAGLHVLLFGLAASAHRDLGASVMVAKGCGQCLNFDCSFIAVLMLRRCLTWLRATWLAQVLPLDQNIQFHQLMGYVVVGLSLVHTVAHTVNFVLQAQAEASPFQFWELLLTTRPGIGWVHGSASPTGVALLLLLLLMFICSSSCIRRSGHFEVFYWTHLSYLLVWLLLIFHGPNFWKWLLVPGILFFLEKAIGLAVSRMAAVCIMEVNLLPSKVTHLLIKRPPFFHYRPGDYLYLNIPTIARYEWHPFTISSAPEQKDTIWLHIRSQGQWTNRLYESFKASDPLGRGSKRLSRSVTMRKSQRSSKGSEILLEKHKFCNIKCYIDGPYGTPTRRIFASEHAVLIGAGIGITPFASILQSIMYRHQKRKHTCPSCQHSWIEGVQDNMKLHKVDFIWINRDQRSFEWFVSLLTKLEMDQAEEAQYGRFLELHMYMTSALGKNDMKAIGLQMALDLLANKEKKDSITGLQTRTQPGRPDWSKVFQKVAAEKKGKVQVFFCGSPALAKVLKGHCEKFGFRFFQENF
# Assay Info: NOX5-dependent H2O2 signal modulators, primary screen, NOX inhibitor project, cell-based, HEK293-NOX5, Amplex Red fluorescence (AID 1161)
# Experimental Context: HEK293-NOX5, ionomycin, 45 min, higher = more signal
Property Label: z-score
Enter the number alone.

Entry COc1ccc(COC(=O)NN=C2C[C@@H](O)[C@@H](O)[C@@H]3[C@@H]4C(=O)N(C[C@@H]5CCCO5)C(=O)[C@@H]4CC[C@H]23)cc1 — recorded z-score = 0.0239

Entry CC(C)[C@@H](OCc1ccccc1)[C@H](C)C=NO[C@@H](C)c1cn([C@H](CO)Cc2ccccc2)nn1 — recorded z-score = -0.543

Entry C=CC[C@@H]1C=C[C@H](ON=C(C)CCN2CCCc3nc(C)c(C)cc32)[C@@H](CO)O1 — recorded z-score = -0.473
